Biological target: ABL1 (T315I) (Homo sapiens, UniProt P00519, T315I)
Assay: Kinase profiling in vitro, ABL1 (T315I)
Settings: recombinant ABL1 (T315I), 33P-ATP, 120 min
readout-name: IC50 (µM)
Answers are plain numbers, in µM.

Any idea what its IC50 is? The compound is `CNCCO/N=C1/C(=C2/C(=O)Nc3ccc(Br)cc32)Nc2ccccc21`
3.4

###

Target: c-Src (Homo sapiens)
Sequence (P12931 whole entry, species assumed): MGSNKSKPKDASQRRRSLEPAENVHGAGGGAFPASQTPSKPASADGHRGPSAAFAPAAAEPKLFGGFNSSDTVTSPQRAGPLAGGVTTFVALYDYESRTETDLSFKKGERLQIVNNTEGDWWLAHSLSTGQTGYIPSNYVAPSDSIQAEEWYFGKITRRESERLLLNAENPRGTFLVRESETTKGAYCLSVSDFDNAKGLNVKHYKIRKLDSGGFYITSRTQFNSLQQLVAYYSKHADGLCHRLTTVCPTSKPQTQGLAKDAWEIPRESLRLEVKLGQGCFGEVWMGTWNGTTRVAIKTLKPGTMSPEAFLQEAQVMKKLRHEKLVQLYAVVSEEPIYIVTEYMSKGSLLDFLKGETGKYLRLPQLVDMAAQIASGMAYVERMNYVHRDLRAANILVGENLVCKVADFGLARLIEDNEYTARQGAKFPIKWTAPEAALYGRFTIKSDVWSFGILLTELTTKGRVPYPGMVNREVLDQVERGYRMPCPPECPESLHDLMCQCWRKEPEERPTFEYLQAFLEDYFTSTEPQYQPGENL
Test: Kinase profiling in vitro, c-Src
Conditions: recombinant c-Src, 33P-ATP, 120 min
readout-name: IC50 (nM)
Give bare numbers, in nM.

I would be grateful if you could share the reported IC50 for `CNCCO/N=C1/C(=C2/C(=O)Nc3ccc(Br)cc32)Nc2ccccc21` .
13.8
